# SUBJECT_OF_TEST: NADPH oxidase 4 (Homo sapiens) (UniProt Q9NPH5)
# Sequence (Q9NPH5 whole entry, looked up): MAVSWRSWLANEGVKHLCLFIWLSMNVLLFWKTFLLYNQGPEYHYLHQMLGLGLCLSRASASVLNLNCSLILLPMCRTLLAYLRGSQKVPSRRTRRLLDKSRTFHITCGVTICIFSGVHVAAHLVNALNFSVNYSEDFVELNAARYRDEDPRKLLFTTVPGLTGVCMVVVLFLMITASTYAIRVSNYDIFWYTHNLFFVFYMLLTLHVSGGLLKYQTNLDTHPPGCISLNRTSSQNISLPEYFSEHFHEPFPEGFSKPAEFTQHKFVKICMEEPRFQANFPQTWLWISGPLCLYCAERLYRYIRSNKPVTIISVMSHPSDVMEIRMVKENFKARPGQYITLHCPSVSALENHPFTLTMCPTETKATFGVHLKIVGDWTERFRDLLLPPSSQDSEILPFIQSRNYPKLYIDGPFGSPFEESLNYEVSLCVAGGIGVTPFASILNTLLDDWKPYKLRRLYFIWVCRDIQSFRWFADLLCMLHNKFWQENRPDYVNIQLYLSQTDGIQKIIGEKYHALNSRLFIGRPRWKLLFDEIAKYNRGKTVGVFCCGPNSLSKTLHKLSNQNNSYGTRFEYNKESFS
# PROCEDURE_TEXT: compounds shifting NOX4 Amplex Red fluorescence – cell-based, HEK293-NOX4, tetracycline-induced, NOX inhibitor project, primary screen (AID 1160)
# RUN_CONDITIONS: HEK293-NOX4, Amplex Red H2O2 fluorescence, 45 min; higher = more signal, called active from +8 up or from −8 down
Here, each record is paired with measured z-score data.
Lab note: record the figure alone, no unit after it.

Below are worked cases with known answers.
COMPOUND: O=C1OCCC=C[C@H]2OC34C=CCN(CCN5CCOCC5)C(=O)[C@H]3N(CCCCCO)C(=O)[C@@H]4C12 (stereo partly drawn)
MEASURED_NUMBER: 0.393

COMPOUND: COC(=O)c1c2oc(c1C(=O)OC)C(=O)NC1(CCCCC1)c1cn(nn1)C[C@H](Cc1ccccc1)NC(=O)N[C@H](CO)CC2
MEASURED_NUMBER: 1.26

COMPOUND: O=C1O[C@H](c2ccccc2)[C@H](c2ccccc2)N2[C@H]1[C@@H](C(=O)NC[C@H](O)c1ccccc1)[C@]1(C(=O)Nc3ccccc31)[C@H]2c1ccc(O)cc1
MEASURED_NUMBER: -0.705

COMPOUND: O=C1OCC=C[C@H]2OC34C=CCN(Cn5nnc6ccccc65)C(=O)[C@H]3N(CCCCCO)C(=O)[C@@H]4[C@@H]12 (stereo partly drawn)
MEASURED_NUMBER: 0.223

COMPOUND: O=C1[C@@]23C=C(Br)[C@H](C[C@@H]2COC3)[C@]12CO2
MEASURED_NUMBER: -1.92

QUERY: # assay system NADPH oxidase 4 (Homo sapiens) (UniProt Q9NPH5): give z-score of C=CC[C@@]1(C(=O)N2CCCCC2)N=C(c2ccc(OCCCO)cc2)O[C@@H]1c1ccccc1N=[N+]=[N-]
RESULT: 0.378

QUERY: For NADPH oxidase 4 (Homo sapiens) (UniProt Q9NPH5), give z-score of the listed compound: CCCNC(=O)[C@@]1(Sc2ccc(C)cc2)CC(=O)N(Cc2ccccc2C(F)(F)F)[C@@H]1c1ccc(CO)cc1I
RESULT: -2

QUERY: Name the value of z-score reported for O=C1NC(=O)C2C1C=CC(C(O)c1ccc(I)cc1)N2Nc1ccccn1 (stereo not drawn) when tested on NADPH oxidase 4 (Homo sapiens) (UniProt Q9NPH5).
RESULT: -2.82

====

# SUBJECT_OF_TEST: Follistatin (Homo sapiens) (UniProt P19883)
# Sequence (P19883 whole entry, looked up): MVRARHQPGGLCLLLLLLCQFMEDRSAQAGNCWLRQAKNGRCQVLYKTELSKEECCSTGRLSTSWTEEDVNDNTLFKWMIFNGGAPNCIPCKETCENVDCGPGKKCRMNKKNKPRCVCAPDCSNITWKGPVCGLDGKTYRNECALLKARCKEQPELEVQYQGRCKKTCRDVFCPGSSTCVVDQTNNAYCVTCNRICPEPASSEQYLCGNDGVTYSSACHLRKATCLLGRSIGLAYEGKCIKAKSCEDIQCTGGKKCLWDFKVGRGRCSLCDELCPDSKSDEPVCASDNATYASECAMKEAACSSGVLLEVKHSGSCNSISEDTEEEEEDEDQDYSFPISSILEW
# PROCEDURE_TEXT: FST protein binding to printed compounds – biochemical, small-molecule microarray, 635/667 nm fluorescence, primary screen (AID 1132)
# RUN_CONDITIONS: 635 nm fluorescence, higher = more signal
ENDPOINT_LABEL: composite z-score

COMPOUND: COc1ccc([Si](C)(C)[C@@H]2[C@@H](CCn3cc([C@H](O)c4ccccc4)nn3)O[C@]3(C(=O)N(Cc4cccc(N5CCC5=O)c4)c4ccccc43)[C@H]2C)cc1
composite z-score: 1.15

QUERY: For the compound CCCCCCCCCCC(O)C1C=CC2C(=O)NC(=O)C2N1Nc1ccc(Cl)cc1Cl (centres undefined) , give its reported composite z-score.
RESULT: -0.184

QUERY: Provide only the value of recorded composite z-score for O=C1OCCC=C[C@H]2OC34C=CCN(Cn5nnc6ccccc65)C(=O)[C@H]3N(CCO)C(=O)[C@@H]4C12 (some centres undefined)
RESULT: -0.851

QUERY: Annotate the compound COC(=O)[C@]1(CCC(=O)OC(C)(C)C)N=C(c2ccc(OCCCO)cc2)O[C@@H]1c1ccccc1 with its measured composite z-score.
RESULT: 0.263
